meta.source: patent US20110105515A1

// reported CC50 for each item listed
Test system: SNB-75
conditionNotes: read-out: LC50; SNB-75 (CNS Cancer), 48 hours, SRB
Write the figure, then the unit, nothing else.

CC1(C)C=Cc2c(ccc3c4c(n(O)c23)C(C)(C)C2CC35CCCN3C(=O)C2(NC5=O)C4SCC(NC(=O)CCC(N)C(=O)O)C(=O)NCC(=O)O)O1 (centres unmarked) | 8.47 µM

Here's the next entry for you.
Assay SNB-75, sample CN(C)c1cccc2c(S(=O)(=O)NCCCCCCCCCCOc3ccc4c(c3)[N+]([O-])=C3C4=C[C@@]45NC(=O)C6(CCCN6C4=O)CC5C3(C)C)cccc12 (some centres unmarked) , CC50 read: 3.43 µM

----------
Test system: BT-549
conditionNotes: read-out: LC50; BT-549 (Breast Cancer), 48 hours, SRB
// reported CC50 for each item listed

CN(C)c1cccc2c(S(=O)(=O)NCCCCCCCCCCOc3ccc4c(c3)[N+]([O-])=C3C4=C[C@@]45NC(=O)C6(CCCN6C4=O)CC5C3(C)C)cccc12 (some centres unmarked) [Dansyl Analogue] | > 100 µM

The reported value for CC1(C)C=Cc2c(ccc3c4c(n(O)c23)C(C)(C)C2CC35CCCN3C(=O)C2(NC5=O)C4SCC(NC(=O)CCC(N)C(=O)O)C(=O)NCC(=O)O)O1 (centres unmarked) [Glutathione Adduct] in terms of CC50 is 10.5 µM

----------
Test system: HOP-92
methodDescription: NCI 60 cell lines, SRB assay: HOP-92
conditionNotes: read-out: LC50; HOP-92 (Non-Small Cell Lung Cancer), 48 hours, SRB
measuredMetric: CC50

The reported value for CN(C)c1cccc2c(S(=O)(=O)NCCCCCCCCCCOc3ccc4c(c3)[N+]([O-])=C3C4=C[C@@]45NC(=O)C6(CCCN6C4=O)CC5C3(C)C)cccc12 (stereo partly shown) in terms of CC50 is 12.7 µM

----------
System: SNB-19
conditionNotes: read-out: LC50; SNB-19 (CNS Cancer), 48 hours, SRB
// reported CC50 for each item listed

CC1(C)C=Cc2c(ccc3c4c(n(O)c23)C(C)(C)C2CC35CCCN3C(=O)C2(NC5=O)C4SCC(NC(=O)CCC(N)C(=O)O)C(=O)NCC(=O)O)O1 (centres unmarked) | 18.7 µM

Here's the next entry for you.
The reported value for CN(C)c1cccc2c(S(=O)(=O)NCCCCCCCCCCOc3ccc4c(c3)[N+]([O-])=C3C4=C[C@@]45NC(=O)C6(CCCN6C4=O)CC5C3(C)C)cccc12 (some centres unmarked) in terms of CC50 is 4.1 µM

----------
Test system: KM12
conditionNotes: KM12 (Colon Cancer), 48 hours, SRB
measuredMetric: TGI (µM)
Supply the numeric figure in µM, leaving out any unit text.

Please review the entries below; each comes with its answer.
CC1(C)C=Cc2c(ccc3c4c(n(O)c23)C(C)(C)C2CC35CCCN3C(=O)C2(NC5=O)C4SCC(NC(=O)CCC(N)C(=O)O)C(=O)NCC(=O)O)O1 (stereo not shown) | 1.91
[2H]On1c2c(c3ccc4c(c31)C=CC(C)(C)O4)C(OC([2H])([2H])[2H])[C@@]13NC(=O)C4(CCCN4C1=O)CC3C2(C)C (stereo partly shown) | 2.52

The reported value for CN(C)c1cccc2c(S(=O)(=O)NCCCCCCCCCCOc3ccc4c(c3)[N+]([O-])=C3C4=C[C@@]45NC(=O)C6(CCCN6C4=O)CC5C3(C)C)cccc12 (stereo partly shown) in terms of TGI is 2.88

The reported value for Cc1cc(C)cc(-c2ccc3c(c2)[N+]([O-])=C2C3=C[C@@]34NC(=O)C5(CCCN5C3=O)CC4C2(C)C)c1 (stereo partly shown) in terms of TGI is 0.74
